Tested on: DNCB-induced atopic dermatitis in Balb/c mice
Test: Efficacy evaluation test of DNCB-induced atopic dermatitis in Balb/c mice model (Biological Example 1)
Type: in vivo
Settings: Balb/c mice, 1 mg/mouse on ear, BID × 10; 18th day; vs model and blank control
Examples of compounds with documented Inhibitory Rate of Ear Thickness follow.
Outcome measure: Inhibitory Rate of Ear Thickness (%)

[[record]]
compound = "CCOc1cc(C(CC(=O)OC)N2C(=O)c3cccc(NC(C)=O)c3C2=O)ccc1OC (stereo not shown) [Example 1]"
recorded_measurement = 22.5

[[record]]
compound = "CCOc1cc([C@H](CC(=O)OC)N2C(=O)c3cccc(NC(C)=O)c3C2=O)ccc1OC [Example 10]"
recorded_measurement = 58.8

[[record]]
compound = "CCCOC(=O)CC(c1ccc(OC)c(OCC)c1)N1C(=O)c2cccc(NC(C)=O)c2C1=O (stereo not shown) [Example 11]"
recorded_measurement = 51.5

[[record]]
compound = "COC(=O)CC(c1ccc(OC)c(OC)c1)N1C(=O)c2cccc(NC(C)=O)c2C1=O (stereo not shown) [Example 3]"
recorded_measurement = 34.0


====

Test system: DNCB-induced atopic dermatitis in Balb/c mice
Assay: Efficacy evaluation test of DNCB-induced atopic dermatitis in Balb/c mice model (Biological Example 2)
Type: in vivo
Details: Balb/c mice, 1 mg/mouse on ear, BID × 10; Day 18; Mean ± S.D.
Outcome measure: Weight Changes of Animals, Day 18

[[record]]
compound = "COC(=O)C[C@@H](c1ccc(OC)c(OC(C)C)c1)N1C(=O)c2cccc(NC(C)=O)c2C1=O [Example 54]"
outcome_measure = "Weight Changes of Animals, Day 18"
recorded_measurement = "23.1 ± 1.2 g"

[[record]]
compound = "CCOC(=O)C[C@@H](c1ccc(OC)c(OCC)c1)N1C(=O)c2cccc(NC(C)=O)c2C1=O [Example 52]"
outcome_measure = "Weight Changes of Animals, Day 18"
recorded_measurement = "24.2 ± 6.0 g"

[[record]]
compound = "CCOC(=O)C[C@H](c1ccc(OC)c(OCC)c1)N1C(=O)c2cccc(NC(C)=O)c2C1=O [Example 51]"
outcome_measure = "Weight Changes of Animals, Day 18"
recorded_measurement = "22.9 ± 1.3 g"

[[record]]
compound = "CCOC(=O)CC(c1ccc(OC)c(OCC)c1)N1C(=O)c2cccc(NC(C)=O)c2C1=O (centres unmarked) [Example 6]"
outcome_measure = "Weight Changes of Animals, Day 18"
recorded_measurement = "22.7 ± 1.5 g"

[[record]]
compound = "COC(=O)CC(c1ccc(OC)c(OC(C)C)c1)N1C(=O)c2cccc(NC(C)=O)c2C1=O (centres unmarked) [Example 46]"
outcome_measure = "Weight Changes of Animals, Day 18"
recorded_measurement = "23.1 ± 0.7 g"


====

Examples of molecules with documented Weight Changes of Animals, Day 18 follow.
System: DNCB-induced atopic dermatitis in Balb/c mice
Assay: Efficacy evaluation test of DNCB-induced atopic dermatitis in Balb/c mice model (Biological Example 1)
Format: in vivo
Settings: Balb/c mice, 1 mg/mouse on ear, BID × 10; Day 18; Mean ± S.D.
Outcome measure: Weight Changes of Animals, Day 18 (g)

[[record]]
molecule = "CCOc1cc(C(CC(=O)OC)N2C(=O)c3cccc(NC(C)=O)c3C2=O)ccc1OC (stereo not shown) [Example 1]"
recorded_measurement = 22.0

[[record]]
molecule = "CCOc1cc([C@H](CC(=O)OC)N2C(=O)c3cccc(NC(C)=O)c3C2=O)ccc1OC [Example 10]"
recorded_measurement = 22.4

[[record]]
molecule = "COC(=O)CC(c1ccc(OC)c(OC)c1)N1C(=O)c2cccc(NC(C)=O)c2C1=O (stereo not shown) [Example 3]"
recorded_measurement = 21.7

[[record]]
molecule = "CCCOC(=O)CC(c1ccc(OC)c(OCC)c1)N1C(=O)c2cccc(NC(C)=O)c2C1=O (stereo not shown) [Example 11]"
recorded_measurement = 21.1


====

Tested on: DNCB-induced atopic dermatitis in Balb/c mice
Test: Efficacy evaluation test of DNCB-induced atopic dermatitis in Balb/c mice model (Biological Example 1)
Assay type: in vivo
Conditions: Balb/c mice, 1 mg/mouse on ear, BID × 10; Day 10; Mean ± S.D.
Outcome measure: Weight Changes of Animals, Day 10 (g)

[[record]]
molecule = "CCCOC(=O)CC(c1ccc(OC)c(OCC)c1)N1C(=O)c2cccc(NC(C)=O)c2C1=O (stereo not shown)"
outcome_measure = "Weight Changes of Animals, Day 10"
unit_annotation = "g"
recorded_measurement = 21.6

[[record]]
molecule = "CCOc1cc([C@H](CC(=O)OC)N2C(=O)c3cccc(NC(C)=O)c3C2=O)ccc1OC"
outcome_measure = "Weight Changes of Animals, Day 10"
unit_annotation = "g"
recorded_measurement = 22.3

[[record]]
molecule = "CCOc1cc(C(CC(=O)OC)N2C(=O)c3cccc(NC(C)=O)c3C2=O)ccc1OC (stereo not shown)"
outcome_measure = "Weight Changes of Animals, Day 10"
unit_annotation = "g"
recorded_measurement = 22.4

[[record]]
molecule = "COC(=O)CC(c1ccc(OC)c(OC)c1)N1C(=O)c2cccc(NC(C)=O)c2C1=O (stereo not shown)"
outcome_measure = "Weight Changes of Animals, Day 10"
unit_annotation = "g"
recorded_measurement = 22.3


====

Examples of compounds with documented Inhibitory Rate of IgE Concentration follow.
Tested on: DNCB-induced atopic dermatitis in Balb/c mice
Assay: Efficacy evaluation test of DNCB-induced atopic dermatitis in Balb/c mice model (Biological Example 2)
Assay type: in vivo
Conditions: serum; 1 mg/mouse on ear, BID × 10; 18th day; vs model and blank control
Outcome measure: Inhibitory Rate of IgE Concentration (%)

[[record]]
compound = "COC(=O)C[C@@H](c1ccc(OC)c(OC(C)C)c1)N1C(=O)c2cccc(NC(C)=O)c2C1=O"
recorded_measurement = 45.9

[[record]]
compound = "CCOC(=O)CC(c1ccc(OC)c(OCC)c1)N1C(=O)c2cccc(NC(C)=O)c2C1=O (centres unmarked)"
recorded_measurement = 32.8

[[record]]
compound = "CCOC(=O)C[C@@H](c1ccc(OC)c(OCC)c1)N1C(=O)c2cccc(NC(C)=O)c2C1=O"
recorded_measurement = 55.5

[[record]]
compound = "CCOC(=O)C[C@H](c1ccc(OC)c(OCC)c1)N1C(=O)c2cccc(NC(C)=O)c2C1=O"
recorded_measurement = 23.3

[[record]]
compound = "COC(=O)CC(c1ccc(OC)c(OC(C)C)c1)N1C(=O)c2cccc(NC(C)=O)c2C1=O (centres unmarked)"
recorded_measurement = 51.7

